# Assay system: T1, human GIP receptor (human) (UniProt P48546)
# T1 sequence (looked up): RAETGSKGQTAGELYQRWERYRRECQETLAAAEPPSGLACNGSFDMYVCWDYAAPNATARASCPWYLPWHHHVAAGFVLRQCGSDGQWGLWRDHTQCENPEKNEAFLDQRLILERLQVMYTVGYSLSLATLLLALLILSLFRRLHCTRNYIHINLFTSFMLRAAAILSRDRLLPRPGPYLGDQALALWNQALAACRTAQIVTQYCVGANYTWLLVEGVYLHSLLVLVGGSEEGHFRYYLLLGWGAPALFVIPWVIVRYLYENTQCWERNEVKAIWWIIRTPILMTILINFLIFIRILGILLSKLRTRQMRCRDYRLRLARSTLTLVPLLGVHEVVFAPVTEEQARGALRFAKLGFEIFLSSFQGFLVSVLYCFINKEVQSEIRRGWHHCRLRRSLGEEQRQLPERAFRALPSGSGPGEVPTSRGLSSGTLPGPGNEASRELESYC
# Method: cell-based or functional assay
Starred links: 1 amine or outer side, 2 acyl side, 3 side chain; linkers in the order of their positions; H or OH if unused. Non-standard residues stand in square brackets, D forms with d. Groups on a side chain read outwards from the residue. No end group written: not given here. *: point of attachment. C20 diacid = O=C(O)CCCCCCCCCCCCCCCCCCC(=O)*; αMePhe(2-F) = C[C@](N)(Cc1ccccc1F)C(=O)O; γGlu = O=C(O)[C@H](CCC(=O)[*:2])N[*:1]; αMeL = CC(C)C[C@](C)(N)C(=O)O; AEEA = NCCOCCOCC(=O)O; Aib = CC(C)(N)C(=O)O
This listing pairs binders with measured Relative cAMP EC50.
# output: numeric value plus its unit

Sample answers from the record:
{"Binder": "Y[Aib]QGTFTSDYSI[αMeL]LDKQAAK([AEEA-AEEA-γGlu-C20 diacid])QFIEWLIEGGPSSGEPPPGEG-NH2 [Example 318]", "Relative cAMP EC50": "0.378 nM"}
{"Binder": "YXQGTFTSDXSQXLDXKAQXQFIEYLLAGGPSSGAPPPSGSEE (synthetic construct; SITE 2: note = 2-Aminoisobutyric Acid; SITE 10: note = 3-(4-Pyridyl)-L-alanine; SITE 13: note = alpha-methyl-leucine; SITE 16: note = L-ornithine; SITE 17: note = Lysine is chemically modified through conjugation of the epsilon-amino group of the Lysine side chain with (gamma-Gl)) [Example 1006]", "Relative cAMP EC50": "0.109 nM"}
{"Binder": "YXQGTFTSDFSKXLDKKAQXAFIEYLLAGGPSSGEPPPSGE (Aib, αMeL, acylated K, C-terminal amide; synthetic construct; SITE 2: note = 2-Aminoisobutyric Acid; SITE 13: note = alpha-methyl-leucine; SITE 17: note = Lysine is chemically modified through conjugation of the epsilon-amino group of the Lysine side chain with (2-[2-(2-Amino-ethoxy)-ethoxy]-acetyl)-(gamma-Glu)-CO-(CH2) 16-CO2H; SITE 20: n) [Example 23]", "Relative cAMP EC50": "0.178 nM"}
{"Binder": "YXQGTFTSDXSQXLDKKAQXAFIEYLIAGGPSSGAPPPSGEEE (Aib, 4Pal, αMeL, Me4Pal, acylated K, C-terminal amide; synthetic construct; SITE 2: note = 2-Aminoisobutyric Acid; SITE 10: note = 3-(4-Pyridyl)-L-alanine; SITE 13: note = alpha-methyl-leucine; SITE 17: note = Lysine is chemically modified through conjugation of the epsilon-amino group of the Lysine side chain with D-Glutamic acid-(gamma-Glu)-CO-(CH2)16) [Example 1088]", "Relative cAMP EC50": "0.182 nM"}

Here's the next entry for you.
[ask] Return reported Relative cAMP EC50; argument: Y[Aib]QGT[αMePhe(2-F)]TSDYSKLLDKIAQKAFIEYLIEGGPSSGEPPPSEG-NH2 (not fully specified (residue 20)) [Example 304]
[reply] 0.127 nM
